Listed next: entries and their corresponding pIC50.
# target.entity: Phosphatidylinositol 4,5-bisphosphate 3-kinase catalytic subunit alpha isoform (Homo sapiens, UniProt P42336)
# Sequence (P42336 whole entry, canonical isoform): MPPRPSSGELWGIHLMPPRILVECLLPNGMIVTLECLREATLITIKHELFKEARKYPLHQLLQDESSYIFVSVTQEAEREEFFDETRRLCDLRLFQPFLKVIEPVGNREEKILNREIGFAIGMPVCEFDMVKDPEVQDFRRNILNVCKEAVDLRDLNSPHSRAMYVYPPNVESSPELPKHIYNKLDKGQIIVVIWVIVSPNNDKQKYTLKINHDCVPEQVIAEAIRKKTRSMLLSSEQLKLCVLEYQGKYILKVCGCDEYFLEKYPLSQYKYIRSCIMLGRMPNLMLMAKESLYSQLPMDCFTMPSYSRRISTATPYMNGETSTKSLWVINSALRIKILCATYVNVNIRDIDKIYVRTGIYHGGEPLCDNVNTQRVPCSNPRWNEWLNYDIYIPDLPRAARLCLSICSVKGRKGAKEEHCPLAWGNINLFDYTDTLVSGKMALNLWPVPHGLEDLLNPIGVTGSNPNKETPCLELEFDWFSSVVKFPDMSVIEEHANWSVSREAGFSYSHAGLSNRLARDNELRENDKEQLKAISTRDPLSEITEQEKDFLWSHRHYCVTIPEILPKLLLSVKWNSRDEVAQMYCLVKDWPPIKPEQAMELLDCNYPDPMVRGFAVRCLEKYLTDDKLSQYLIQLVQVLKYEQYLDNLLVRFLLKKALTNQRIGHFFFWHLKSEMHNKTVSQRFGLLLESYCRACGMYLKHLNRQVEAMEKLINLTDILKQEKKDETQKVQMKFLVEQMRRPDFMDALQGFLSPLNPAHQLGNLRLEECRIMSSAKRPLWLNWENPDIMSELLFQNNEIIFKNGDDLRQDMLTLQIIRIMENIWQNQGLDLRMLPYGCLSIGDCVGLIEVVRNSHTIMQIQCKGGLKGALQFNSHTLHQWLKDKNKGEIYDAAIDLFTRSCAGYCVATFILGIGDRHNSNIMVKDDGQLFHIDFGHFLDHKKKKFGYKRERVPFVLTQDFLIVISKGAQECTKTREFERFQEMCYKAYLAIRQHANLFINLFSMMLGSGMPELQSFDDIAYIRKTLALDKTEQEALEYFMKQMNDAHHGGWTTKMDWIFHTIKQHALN
# method.summary: Inhibition of PI3Kalpha
Expect pIC50 as a plain number equal to -log10 of the molar concentration.

Worked set:
* CN(C)CCCOc1ccc(CN2CCC(n3cnc4c(N5CCOCC5)nc(-c5cccc(CO)c5)nc43)CC2)cc1 | 7.80
* OCc1cccc(-c2nc(N3CCOCC3)c3ncn(C4CCN(Cc5ccc(F)cc5)CC4)c3n2)c1 | 7.15
* Cc1ccc(CN2CCC(n3cnc4c(N5CCOCC5)nc(-c5cncc(O)c5)nc43)CC2)cc1 | 7.38
* Oc1cncc(-c2nc(N3CCOCC3)c3ncn(C4CCN(Cc5ccc(Cl)cc5)CC4)c3n2)c1 | 7.80
* CC(=O)N1CCC(n2cnc3c(N4CCOCC4)nc(-c4cccc(CO)c4)nc32)CC1 | 6.72
* Oc1cccc(-c2nc(N3CCOCC3)c3ncn(C4CCNCC4)c3n2)c1 | 7.19
* Oc1cccc(-c2nc(N3CCOCC3)c3nc[nH]c3n2)c1 | 6.82
* OCc1cccc(-c2nc(N3CCOCC3)c3ncn(C4CCN(Cc5ccc(-c6ccncc6)cc5)CC4)c3n2)c1 | 7.64

Moving on to the next compound.
Note to self: pIC50 recorded for OCc1cccc(-c2nc(N3CCOCC3)c3ncn(C4CCNCC4)c3n2)c1 was 7.24

// data source = ChEMBL document CHEMBL1153170
